Biological target: T1, cynomolgus monkey IL-33 expressed with a C-terminal hexahistidine tag (cynomolgus monkey)
T1 construct: also called MfIL-33-6His; Mf-IL-33-6His
T1 chain: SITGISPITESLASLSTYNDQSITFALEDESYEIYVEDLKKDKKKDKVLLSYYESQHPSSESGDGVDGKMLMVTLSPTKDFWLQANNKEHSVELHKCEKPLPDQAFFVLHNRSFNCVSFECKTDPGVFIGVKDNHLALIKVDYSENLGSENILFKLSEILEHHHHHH
Experiment: SPR 25C, pH6.0 chase, mAb captured
koff for assorted binders
quantity-kind: koff (s⁻¹)

>  <binder>
H4H9670P (antibody, V domains shown, Human IgG4 Fc (H4H)) VH: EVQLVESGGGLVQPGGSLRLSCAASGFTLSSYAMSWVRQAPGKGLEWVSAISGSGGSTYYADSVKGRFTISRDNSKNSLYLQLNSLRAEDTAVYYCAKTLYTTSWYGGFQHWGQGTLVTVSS VL: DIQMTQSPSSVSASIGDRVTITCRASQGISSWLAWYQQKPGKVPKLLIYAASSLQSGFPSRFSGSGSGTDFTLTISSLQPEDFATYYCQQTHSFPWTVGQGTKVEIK

>  <observed-measurement>
0.000393

$$$$
>  <binder>
H4H9664P (antibody, human IgG4, V domains shown, Human IgG4 Fc (H4H)) VH: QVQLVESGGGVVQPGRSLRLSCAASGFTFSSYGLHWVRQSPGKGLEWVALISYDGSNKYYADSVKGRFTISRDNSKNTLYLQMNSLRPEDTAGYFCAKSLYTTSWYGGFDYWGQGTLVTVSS VL: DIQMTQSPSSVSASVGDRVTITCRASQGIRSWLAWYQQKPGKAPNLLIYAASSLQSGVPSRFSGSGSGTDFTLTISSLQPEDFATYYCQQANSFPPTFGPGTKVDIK

>  <observed-measurement>
0.00048

$$$$
>  <binder>
H4H9662P (antibody, V domains shown, Human IgG4 Fc (H4H)) VH: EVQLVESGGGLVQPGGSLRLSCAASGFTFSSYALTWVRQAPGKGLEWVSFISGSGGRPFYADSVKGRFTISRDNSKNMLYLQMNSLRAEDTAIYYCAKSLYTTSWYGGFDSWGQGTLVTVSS VL: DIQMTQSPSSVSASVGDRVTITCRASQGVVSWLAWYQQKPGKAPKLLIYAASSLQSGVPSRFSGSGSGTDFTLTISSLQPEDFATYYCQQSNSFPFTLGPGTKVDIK

>  <observed-measurement>
0.000117

$$$$
